Recorded IC50 values (IRAK4 (Homo sapiens (Human), UniProt Q9NWZ3)) are given below.
Please give a number only; it is taken to be in nM.

query: Would you mind telling me what IC50 value was observed for Cc1cnc2c(NC(=O)c3cn4cc([C@@]56CC[C@@](C)(C5)OC6)nc4cc3OC(C)C)cnn2c1 (single isomer, unassigned) [Comparator 3B, reference compound] ?
result: 0.1

query: Then CC(C)Oc1nc2nc(C[C@@H]3CCOC3)cn2cc1C(=O)Nc1cccn(C2CC2)c1=O (single isomer, unassigned) ?
result: 0.5

query: Then CC(C)Oc1c(C(=O)Nc2cccn(C3CC3)c2=O)cn2cc([C@@]34CC[C@@](C)(C3)OC4)nc2c1F (single isomer, unassigned) ?
result: 1.3

query: Then CC(C)Oc1cc2nc(C34COC(C)(C3)C4)cn2cc1C(=O)Nc1cccn(C2CC2)c1=O ?
result: 0.1

====

# assay-details: Kinetic solubility assay (CLND), pH 6.8
# Format: physicochemical
# condition-info: aqueous buffer, kinetic from dmso stock; potassium phosphate buffer pH 6.8, 2% DMSO, 24 hours at ambient temperature
Structures can show the parent of a compound that is named as a salt.
Could you please report measured solubility kinetic at 24 h for the items listed next?
Please give a number only; it is taken to be in µg/mL.

query: Would you mind telling me what solubility kinetic at 24 h value was observed for CC(C)Oc1nc2nc([C@@]34CC[C@@](C)(C3)OC4)cn2cc1C(=O)Nc1cccn(C)c1=O [Comparator 4D, reference compound] ?
result: 58.8

query: Then CC(C)Oc1nc2nc(C34CCC(C)(C3)OC4)cn2cc1C(=O)Nc1cccn([C@H]2C[C@H]2C)c1=O (stereo in doubt) [Example 187, trifluoroacetate] ?
result: 55.1

query: Then CC[C@H](C)Oc1cc2nc([C@@]34CC[C@@](C)(C3)OC4)cn2cc1C(=O)Nc1cccn(C2CC2)c1=O (single isomer, unassigned) [Example 22] ?
result: 69

query: Then CCC12CC(c3cn4cc(C(=O)Nc5cccn(C6CC6)c5=O)c(OC(C)C)cc4n3)(CO1)C2 [Example 2] ?
result: 65.7

====

# system-tested: IRAK4 (Homo sapiens (Human), UniProt Q9NWZ3)
# Sequence (Q9NWZ3 whole entry): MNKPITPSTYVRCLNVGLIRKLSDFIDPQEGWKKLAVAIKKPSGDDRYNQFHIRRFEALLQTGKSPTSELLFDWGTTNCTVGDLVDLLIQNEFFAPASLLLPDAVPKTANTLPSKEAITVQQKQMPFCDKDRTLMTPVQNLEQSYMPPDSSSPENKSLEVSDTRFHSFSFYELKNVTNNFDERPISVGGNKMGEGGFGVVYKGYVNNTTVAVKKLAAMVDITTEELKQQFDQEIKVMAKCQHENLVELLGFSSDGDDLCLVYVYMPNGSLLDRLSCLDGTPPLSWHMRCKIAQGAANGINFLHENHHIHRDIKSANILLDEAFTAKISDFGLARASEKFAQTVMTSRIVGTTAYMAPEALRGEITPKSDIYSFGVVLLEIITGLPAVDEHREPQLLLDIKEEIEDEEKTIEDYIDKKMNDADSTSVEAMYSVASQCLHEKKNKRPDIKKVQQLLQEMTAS
pIC50: −log10 of the molar value. Counter-ions that a name gives are not always drawn.
Would you mind labelling by pIC50? At or over 9 is Met, under is Not met.

query: Would you say C[C@@]12CC[C@@](c3cn4cc(C(=O)Nc5cccn(C6CC6)c5=O)c(OC5CCC5)cc4n3)(CO1)C2 (single isomer, unassigned) shows pIC50 at minimum 9?
result: Met

query: Then CC(C)Oc1cc2nc(C34COC(CF)(C3)C4)cn2cc1C(=O)Nc1cccn(C2CC2)c1=O ?
result: Met

query: Then CC(C)Oc1cc2nc(C34COC(C)(C3)C4)cn2cc1C(=O)Nc1cccn([C@@H]2C[C@@H]2C)c1=O ?
result: Not met

query: Then CC(C)Oc1c(C(=O)Nc2ccnn(C3CC3)c2=O)cn2cc(C34COC(C)(C3)C4)nc2c1F ?
result: Not met

query: Then CC[C@H](C)Oc1nc2nc(C34COC(C)(C3)C4)cn2cc1C(=O)Nc1cccn([C@@H]2C[C@@H]2F)c1=O (single isomer, unassigned) ?
result: Not met

query: Then CC(C)Oc1cc2nc([C@]34CC[C@](C)(C3)OC4)cn2cc1C(=O)Nc1cccn([C@@H]2C[C@@H]2C)c1=O [Example 181, trifluoroacetate] ?
result: Not met

query: Then CC[C@@H](C)Oc1nc2nc(C34COC(C)(C3)C4)cn2cc1C(=O)Nc1cccn([C@H]2C[C@H]2F)c1=O (single isomer, unassigned) ?
result: Met

query: Then CC(C)Oc1cc2nc(C34CC(C#N)(C3)C4)cn2cc1C(=O)Nc1cccn(C2CC2)c1=O ?
result: Met

query: Then CC(C)Oc1cc2nc([C@]34CC[C@](C)(C3)OC4)cn2cc1C(=O)Nc1cccn([C@H]2C[C@H]2F)c1=O ?
result: Met

query: Then CCC12CC(c3cn4cc(C(=O)Nc5cccn(C6CC6)c5=O)c(OC(C)C)cc4n3)(CO1)C2 ?
result: Met
